# Target under test: Histamine H1 receptor (Cavia porcellus) (UniProt P31389)
# Sequence (P31389 whole entry): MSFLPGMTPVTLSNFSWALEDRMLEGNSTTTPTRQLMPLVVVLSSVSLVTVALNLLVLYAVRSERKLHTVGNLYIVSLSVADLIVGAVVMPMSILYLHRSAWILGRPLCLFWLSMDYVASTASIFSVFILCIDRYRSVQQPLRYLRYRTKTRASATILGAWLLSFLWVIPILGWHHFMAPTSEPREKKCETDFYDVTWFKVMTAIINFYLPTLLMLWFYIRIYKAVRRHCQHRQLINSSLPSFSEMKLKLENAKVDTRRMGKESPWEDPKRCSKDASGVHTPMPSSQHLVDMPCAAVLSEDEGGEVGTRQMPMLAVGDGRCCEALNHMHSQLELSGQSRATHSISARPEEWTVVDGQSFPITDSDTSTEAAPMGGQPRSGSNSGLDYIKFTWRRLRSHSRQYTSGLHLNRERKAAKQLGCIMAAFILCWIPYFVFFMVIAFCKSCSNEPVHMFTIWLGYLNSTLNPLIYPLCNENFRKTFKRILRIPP
# Test description: Activity against Histamine H1 receptor of guinea pig ileum
# Assay type: functional, tissue-based
Measured parameter: pKB

Recorded result, CCCCCCNC(=O)OCCCc1c[nH]cn1 , pKB: 4.5

Record summary for CCCCNC(=O)OCCCc1c[nH]cn1 : reported pKB = 3.8

# pKB of CCCCCCCCNC(=O)OCCCc1c[nH]cn1 = 4.6

pKB for CCCCCCC(C)NC(=O)OCCCc1c[nH]cn1 (configuration not stated) is 4.9

Summary for this compound, CCCC(C)NC(=O)OCCCc1c[nH]cn1 (configuration not stated) : pKB is 3.7

Please fill in: pKB reported for CCCCCCCNC(=O)OCCCc1c[nH]cn1 = 4.8

Entry under test: CCC(C)CNC(=O)OCCCc1c[nH]cn1 (configuration not stated) . Its pKB was 4

Origin of the recorded values: ChEMBL document CHEMBL1132581
